- Test system: Zika virus NS2B-NS3 protease (unlinked complex)
- TEST PROTOCOL: Primary screen GU Rhodamine qHTS for Zika virus inhibitors: Unlinked NS2B-NS3 protease assay (AID 1347159); note: nearly all actives have a fitted effect of over 60% in size; note: potency is the fitted concentration of half-maximal effect
- COND: Recombinant ZIKV NS2B-NS3 protease, Rhodamine110 substrate fluorescence; series mostly up to 107 µM
Results filed as inconclusive are left out. Activity calls are given as the source filed them. Calls come from the whole dose curve; as a rule, active = well fitted inhibition curve with a large enough effect; inconclusive = small, poorly fitted or top-dose-only effect; inactive = no such curve, though single readings can be large or run the other way.

- COMPOUND: "CC(C)CCC1(O)C(=O)C(C)(C)C(O[C@@H]2O[C@H](CO)[C@@H](O)[C@H](O)[C@H]2O)C(C)(C)C1O (some centres undefined)"
  SYSTEM NAME: "Zika virus NS2B-NS3 protease (unlinked complex)"
  Potency: "35.5 µM (active)"
- COMPOUND: "CC1=C(C(=O)O)/C(=C\\CO[C@@H]2O[C@H](CO)[C@@H](O)[C@H](O)[C@H]2O)C(OC(=O)/C=C/c2ccc(O)cc2)C1 (some centres undefined)"
  SYSTEM NAME: "Zika virus NS2B-NS3 protease (unlinked complex)"
  Potency: "inactive"
- COMPOUND: "COC(=O)C12CCC(C)C(C)C1C1=CCC3C4(C)CCC(OC(C)=O)C(C)(C)C4CCC3(C)C1(C)CC2 (centres undefined)"
  SYSTEM NAME: "Zika virus NS2B-NS3 protease (unlinked complex)"
  Potency: "inactive"
- COMPOUND: "CC(C)[N+]1(C)C2CCC1CC(OC(=O)C(CO)c1ccccc1)C2 (centres undefined)"
  SYSTEM NAME: "Zika virus NS2B-NS3 protease (unlinked complex)"
  Potency: "inactive"
- COMPOUND: "CC1(C)CC2C=C(C(=O)O)C3COC(=O)C(O)(CO)C23C1 (centres undefined)"
  SYSTEM NAME: "Zika virus NS2B-NS3 protease (unlinked complex)"
  Potency: "inactive"
- COMPOUND: "CC1(C)CC[C@]2(C(=O)OC3OC(CO)C(O)C(O)C3O)CC[C@]3(C)C(=CCC4[C@@]5(C)CC[C@H](OC6OC(C(=O)O)C(O)C(OC7OC(CO)C(O)C(O)C7O)C6O)C(C)(C)C5CC[C@]43C)C2C1 (some centres undefined)"
  SYSTEM NAME: "Zika virus NS2B-NS3 protease (unlinked complex)"
  Potency: "inactive"
- COMPOUND: "CC(C)(C)C(=O)CN1C(=O)[C@H](NC(=O)Nc2cccc(C(=O)O)c2)CN(C2CCCCC2)c2ccccc21"
  SYSTEM NAME: "Zika virus NS2B-NS3 protease (unlinked complex)"
  Potency: "10 µM (active)"
- COMPOUND: "COC(=O)C1=C2Nc3ccccc3C23CCN2CCCC(C(C)O)(C1)C23 (centres undefined)"
  SYSTEM NAME: "Zika virus NS2B-NS3 protease (unlinked complex)"
  Potency: "inactive"
- COMPOUND: "Cc1ccc(C(=O)N(CCCN)C(c2nc3cc(Cl)ccc3c(=O)n2Cc2ccccc2)C(C)C)cc1 (centres undefined)"
  SYSTEM NAME: "Zika virus NS2B-NS3 protease (unlinked complex)"
  Potency: "inactive"
- COMPOUND: "COc1cccc(Nc2ncnn3ccc(CN4CC[C@@H](N)[C@H](O)C4)c23)c1"
  SYSTEM NAME: "Zika virus NS2B-NS3 protease (unlinked complex)"
  Potency: "inactive"
- COMPOUND: "CC(C)C(N)C(=O)OCCOCn1cnc2c(=O)[nH]c(N)nc21 (centres undefined)"
  SYSTEM NAME: "Zika virus NS2B-NS3 protease (unlinked complex)"
  Potency: "inactive"
- COMPOUND: "CCOCCn1nc(CC)c2nc(N3CCC(C(=O)O)CC3)nc(Nc3cc(C)ccn3)c21"
  SYSTEM NAME: "Zika virus NS2B-NS3 protease (unlinked complex)"
  Potency: "inactive"
- COMPOUND: "Cc1ccc(S(=O)(=O)c2ccc([N+](=O)[O-])o2)cc1"
  SYSTEM NAME: "Zika virus NS2B-NS3 protease (unlinked complex)"
  Potency: "inactive"
- COMPOUND: "CC1CCC2C(C)(C)[C@@H](O)CC[C@]2(C)C12Cc1c(O)cc3c(c1O2)CN(C(CCC(=O)O)C(=O)O)C3=O (some centres undefined)"
  SYSTEM NAME: "Zika virus NS2B-NS3 protease (unlinked complex)"
  Potency: "inactive"
- COMPOUND: "N#Cc1ccc(-c2cnc3[nH]cc(NC(=O)c4cccnc4)c3c2)cc1"
  SYSTEM NAME: "Zika virus NS2B-NS3 protease (unlinked complex)"
  Potency: "inactive"
- COMPOUND: "CN(C)CCCCC(=O)Nc1ccc(NC(=S)NC(=O)c2ccc(C(C)(C)C)cc2)cc1"
  SYSTEM NAME: "Zika virus NS2B-NS3 protease (unlinked complex)"
  Potency: "inactive"
- COMPOUND: "CC1(C)CCC(C)(C)c2cc(C3(c4ccc(C(=O)O)cc4)OCCO3)ccc21"
  SYSTEM NAME: "Zika virus NS2B-NS3 protease (unlinked complex)"
  Potency: "10 µM (active)"
- COMPOUND: "CC1=C2C[C@H]3O[C@@]3(C)CCC3O[C@@]3(C)C[C@@]2(O)OC1=O (some centres undefined)"
  SYSTEM NAME: "Zika virus NS2B-NS3 protease (unlinked complex)"
  Potency: "inactive"
- COMPOUND: "NC(=O)[C@H]1CCS[C@@H]2C[C@]3(CCCN3C(=O)Cc3ccc(NC(=O)COc4ccc(Cl)cc4Cl)cc3)C(=O)N12"
  SYSTEM NAME: "Zika virus NS2B-NS3 protease (unlinked complex)"
  Potency: "inactive"

###

- Test system: Es-2
- TEST PROTOCOL: Primary qHTS to identify gynecologic anti-cancer compounds using libraries of approved drugs and bioactive compounds (AID 1345084); note: nearly all actives have a fitted effect of over 55% in size
- COND: Gynecologic cancer cell panel viability, ATPlite luminescence, 48 h; series mostly up to 57.5 µM
- Description: National Center for Advancing Translational Sciences [NCATS] Assay Overview: Chemotherapeutic drug responses vary from cancer to cancer and from patient to patient. […] ATPlite is a luminescence based assay reliant on the conversion of a luciferase substrate to light in the presence of ATP. As a cytotoxic compound will suppress growth and decrease the number of cells, the concentration of ATP will decrease, and less light signal will be detected in the well. […]
Records with an inconclusive call do not appear. Active and inactive are the calls of the source. The call rests on the fitted dose curve; in most records, active means well fitted cell-killing curve with a large enough effect; inconclusive means small, poorly fitted or top-dose-only effect, or effect the other way; inactive means flat fitted curve, though single readings scatter.
QUANTITY KIND: outcome

- MOLECULE: "CC(=O)C12OC(C)(C)OC1CC1C3CCC4=CC(=O)C=CC4(C)C3(F)C(O)CC12C (stereo not drawn)"
  SYSTEM NAME: "Es-2"
  MEASURED VALUE: "inactive"
- MOLECULE: "NC(=O)c1csc(C2OC(CO)C(O)C2O)n1 (stereo not drawn)"
  SYSTEM NAME: "Es-2"
  MEASURED VALUE: "inactive"
- MOLECULE: "COc1ccc(C(=O)n2c(C)c(Cc3cccc(O[C@@H](C)C(=O)O)c3)c3cc(OC(F)(F)F)ccc32)cc1"
  SYSTEM NAME: "Es-2"
  MEASURED VALUE: "inactive"

###

- Tested on: SKOV3
- TEST PROTOCOL: Primary qHTS to identify gynecologic anti-cancer compounds using libraries of approved drugs and bioactive compounds (AID 1345084); note: nearly all actives have a fitted effect of over 55% in size
- COND: Gynecologic cancer cell panel viability, ATPlite luminescence, 48 h; series mostly up to 57.5 µM
Inconclusive results are not listed. The source made the active and inactive calls. The call rests on the fitted dose curve; in most records, active means well fitted cell-killing curve with a large enough effect; inconclusive means small, poorly fitted or top-dose-only effect, or effect the other way; inactive means flat fitted curve, though single readings scatter.
Possible outcomes: active, inactive

- COMPOUND: "C/C=C1\\[C@H](OC2OC(COC3OC(CO)C(O)C(O)C3O)C(O)C(O)C2O)OC=C(C(=O)OC)[C@H]1CC(=O)OCCc1ccc(O)cc1 (some centres not stated)"
  SYSTEM NAME: "SKOV3"
  CAT: "inactive"
- COMPOUND: "CCCCC1CCN(CCCC(=O)c2ccccc2C)CC1"
  SYSTEM NAME: "SKOV3"
  CAT: "inactive"
- COMPOUND: "COc1ccc(CC2C(=O)NC(C)C(=O)N(C)C3Cc4ccc(cc4)Oc4cc(ccc4OC4OC(CO)C(O)C(O)C4O)CC(C(=O)NC(C)C(=O)NC(C)C(=O)N2C)N(C)C3=O)cc1 (configuration not stated)"
  SYSTEM NAME: "SKOV3"
  CAT: "active"
- COMPOUND: "CC1=CC(=O)C(=C(C)C)CC2C1CCC2(C)O (configuration not stated)"
  SYSTEM NAME: "SKOV3"
  CAT: "inactive"
- COMPOUND: "Nc1nc2c(ncn2[C@@H]2O[C@H](CO)[C@@H](O)[C@H]2O)c(=O)[nH]1"
  SYSTEM NAME: "SKOV3"
  CAT: "inactive"
- COMPOUND: "CC1=C(COC2OC(CO)C(O)C(O)C2O)C(C(CO)C(=O)O)CC1 (configuration not stated)"
  SYSTEM NAME: "SKOV3"
  CAT: "inactive"
- COMPOUND: "COc1cc(N)c(Cl)cc1C(=O)NC[C@@H]1CCN2CCC[C@@H]12"
  SYSTEM NAME: "SKOV3"
  CAT: "inactive"
- COMPOUND: "CN[C@H](CC(C)C)C(=O)N[C@H]1C(=O)N[C@@H](CC(N)=O)C(=O)N[C@H]2C(=O)N[C@H]3C(=O)N[C@H](C(=O)N[C@H](C(=O)O)c4cc(O)cc(O)c4-c4cc3ccc4O)[C@H](O[C@H]3C[C@](C)(N)[C@@H](O)[C@H](C)O3)c3ccc(c(Cl)c3)Oc3cc2cc(c3O[C@@H]2O[C@H](CO)[C@@H](O)[C@H](O)[C@H]2O[C@H]2C[C@](C)(NCc3ccc(-c4ccc(Cl)cc4)cc3)[C@@H](O)[C@H](C)O2)Oc2ccc(cc2Cl)[C@H]1O"
  SYSTEM NAME: "SKOV3"
  CAT: "inactive"
- COMPOUND: "O=c1[nH]ccc2cc(OC3CCNCC3)ccc12"
  SYSTEM NAME: "SKOV3"
  CAT: "inactive"
- COMPOUND: "Cc1c(CN2CCN(C(=O)C(C)O)CC2)sc2c(N3CCOCC3)nc(-c3cnc(N)nc3)nc12 (configuration not stated)"
  SYSTEM NAME: "SKOV3"
  CAT: "active"
- COMPOUND: "O=C(NCc1cccc(O)c1)c1cc2cc(F)ccc2[nH]1"
  SYSTEM NAME: "SKOV3"
  CAT: "inactive"
- COMPOUND: "C[C@@H]1N[C@H]2N(C1=O)c1ccccc1[C@@]2(O)C[C@@H]1C(=O)N[C@@H](C)c2nc3ccccc3c(=O)n21"
  SYSTEM NAME: "SKOV3"
  CAT: "inactive"
